Test system: extensor tonic convulsions
Assay: Electroshock induced convulsion inhibition assay
Type: in vivo, Cox standard strain albino male mice
Settings: Mus musculus, po, 1 h; p.o. (gavage), mice; 60 minutes after administration (optimal time); 0.1 second, 50 milliampere corneal electroshock; read-out: ED50 (dose which inhibited extensor tonic convulsions in one half of the animals)
Counter-ions that a name gives are not always drawn.
Criterion: ED50 strictly under 30 mg/kg. Met: Y. Not met: N.

See these solved cases before continuing.
OC(Cn1ccnc1)c1ccc2c(c1)Cc1ccccc1-2 (centres unmarked) [Example 14]
Y
CCC(C(=O)c1ccc2c(c1)Cc1ccccc1-2)n1ccnc1.Cl (centres unmarked) [Example 13]
N
CCSC(Cn1ccnc1)c1ccc2c(c1)Cc1ccccc1-2.Cl (centres unmarked) [Example 17]
N
O=C(OC(Cn1ccnc1)c1ccc2c(c1)Cc1ccccc1-2)c1ccccc1 (centres unmarked) [Example 16, hydrochloride]
N

# TODO verify ED50 < 30 mg/kg strictly for this compound: CC1(C)c2ccccc2-c2ccc(C(=O)Cn3ccnc3)cc21.Cl [Example 6]
N

----------
Entries and their ED50 values follow.
Test system: extensor tonic convulsions
Assay: Electroshock induced convulsion inhibition assay
Format: in vivo, Cox standard strain albino male mice
Details: Mus musculus, po, 1 h; p.o. (gavage), mice; 60 minutes after administration (optimal time); 0.1 second, 50 milliampere corneal electroshock; read-out: ED50 (dose which inhibited extensor tonic convulsions in one half of the animals)
Just the number please, in mg/kg, no unit attached.

Some molecules with known ED50 results, for comparison:
Cl.c1ccc2c(c1)Cc1cc(C3(Cn4ccnc4)OCCCO3)ccc1-2
32
Cl.O=C(Cn1ccnc1)c1cccc2c1-c1ccccc1C2
44
Cl.O=C(CCn1ccnc1)c1ccc2c(c1)Cc1ccccc1-2
19
OC(CCn1ccnc1)c1ccc2c(c1)Cc1ccccc1-2 (stereo not shown)
33
Cc1cn(CC(=O)c2ccc3c(c2)Cc2ccccc2-3)cn1.Cl
90

Could you tell me which ED50 is on file for c1ccc2c(c1)Cc1cc(C3(CCn4ccnc4)OCCO3)ccc1-2 ?
26

Could you tell me which ED50 is on file for Cc1nccn1CC(=O)c1ccc2c(c1)Cc1ccccc1-2.Cl ?
210
